- SYSTEM_TESTED: sGC α1/β1 heterodimer (Homo sapiens, UniProt Q02108+Q02153)
- Construct: expressed in transfected cells; host or cells: CHO-K1 (clone #7, CHO-K1/sGC)
- Sequence (Q02108 1-690): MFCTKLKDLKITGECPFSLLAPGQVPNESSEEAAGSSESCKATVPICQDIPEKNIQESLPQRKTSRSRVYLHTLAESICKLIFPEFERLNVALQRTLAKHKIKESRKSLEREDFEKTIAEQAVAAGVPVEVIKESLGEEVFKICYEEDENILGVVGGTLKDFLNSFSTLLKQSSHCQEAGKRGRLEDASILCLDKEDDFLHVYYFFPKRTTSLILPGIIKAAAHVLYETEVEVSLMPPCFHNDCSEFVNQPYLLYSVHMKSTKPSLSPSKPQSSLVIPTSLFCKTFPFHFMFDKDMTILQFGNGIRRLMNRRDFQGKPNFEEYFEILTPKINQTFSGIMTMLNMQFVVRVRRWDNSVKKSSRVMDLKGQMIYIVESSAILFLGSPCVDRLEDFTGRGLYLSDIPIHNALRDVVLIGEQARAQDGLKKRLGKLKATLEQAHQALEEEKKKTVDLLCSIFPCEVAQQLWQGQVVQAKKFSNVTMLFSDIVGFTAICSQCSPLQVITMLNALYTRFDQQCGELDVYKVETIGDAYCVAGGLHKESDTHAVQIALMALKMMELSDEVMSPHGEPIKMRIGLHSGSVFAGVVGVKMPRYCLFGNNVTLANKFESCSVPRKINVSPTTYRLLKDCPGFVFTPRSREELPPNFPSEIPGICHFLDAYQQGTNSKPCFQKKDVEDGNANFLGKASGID
- Sequence (Q02153 1-619): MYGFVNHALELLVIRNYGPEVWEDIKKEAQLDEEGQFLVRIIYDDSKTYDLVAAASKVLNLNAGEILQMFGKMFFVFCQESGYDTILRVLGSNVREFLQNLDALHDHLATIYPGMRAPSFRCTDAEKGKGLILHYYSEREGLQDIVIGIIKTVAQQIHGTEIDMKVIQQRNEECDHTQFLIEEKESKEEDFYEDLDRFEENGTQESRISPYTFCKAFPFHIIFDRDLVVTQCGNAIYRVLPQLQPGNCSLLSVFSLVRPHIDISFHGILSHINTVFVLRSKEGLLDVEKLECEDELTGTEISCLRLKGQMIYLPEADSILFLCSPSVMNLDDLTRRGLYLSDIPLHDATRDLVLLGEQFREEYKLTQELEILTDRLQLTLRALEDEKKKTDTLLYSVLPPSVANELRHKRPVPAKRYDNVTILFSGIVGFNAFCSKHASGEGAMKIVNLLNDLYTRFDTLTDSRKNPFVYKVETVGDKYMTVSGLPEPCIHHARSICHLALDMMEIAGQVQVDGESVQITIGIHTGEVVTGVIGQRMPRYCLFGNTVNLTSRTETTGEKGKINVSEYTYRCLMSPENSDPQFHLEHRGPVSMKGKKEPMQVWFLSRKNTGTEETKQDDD
- ASSAY: Cell-based sGC functional assay (CASA assay): cGMP generation in CHO-K1/sGC cells, HTRF detection
- CONDITION_DESCRIPTION: CHO-K1, percent activation relative to standard Compound A in CHO-K1/sGC cells; read-out: % Act.
MEASURE: Emax (%)

Nc1nc(-c2cn3ccnc3c(CCC(F)(F)C(F)(F)F)n2)nc2c1C(C(=O)NC1CC1)(C1CC1)C(=O)N2 (single isomer, unassigned) [Example 61A]: 95
Cc1cnc2c(CCC(F)(F)C(F)(F)F)nc(-c3nc(N)c4c(n3)NC(=O)C4(C)c3ccc(F)cc3)cn12 (centres unmarked) [Example 171A]: 126
CC1(c2ccc(F)cc2)C(=O)Nc2nc(-c3cn4cc(C(F)(F)F)nc4c(Cc4cccc(F)c4)n3)nc(N)c21 (centres unmarked) [Example 149A]: 111
CC(C)Cc1nc(-c2nc(N)c3c(n2)NC(=O)C3(c2ccc(Cl)c(F)c2)C2CC2)cn2ccnc12 (centres unmarked) [Example 315A]: 113
CC(C)Cc1nc(-c2nc(N)c3c(n2)NC(=O)C3(c2ccc(C(F)(F)F)cn2)C2CC2)cn2ccnc12 (centres unmarked) [Example 127A]: 105
CC(C)(C)CCc1nc(-c2nc(N)c3c(n2)NC(=O)C3(C)c2ccc(F)cc2)cn2ccnc12 (centres unmarked) [Example 121A]: 145
CCCc1nc(-c2nc(N)c3c(n2)NC(=O)C3(C)c2ccc(F)cc2)cn2ccnc12 (centres unmarked) [Example 17A]: 124
CC1(c2ccc(F)cc2)C(=O)Nc2nc(-c3cn4ccnc4c(Cc4c(F)ccc(F)c4F)n3)nc(N)c21 (centres unmarked) [Example 98A]: 110
CC1(c2ccc(F)cn2)C(=O)Nc2nc(-c3cn4ccnc4c(CC4CCC4)n3)nc(N)c21 (centres unmarked) [Example 115B]: 111
CN(C)c1nc(-c2cn3ccnc3c(CCC(F)(F)C(F)(F)F)n2)nc2c1C(C)(c1ccc(F)cc1)C(=O)N2 (centres unmarked) [Example 308A]: 126
CC1(c2ccc(Cl)cc2)C(=O)Nc2nc(-c3cn4ccnc4cn3)nc(NCCC(F)(F)C(F)(F)F)c21 (centres unmarked) [Example 286A]: 83
Cc1cnc2c(CCC(F)(F)C(F)(F)F)nc(-c3nc(N)c4c(n3)NC(=O)C4(C)c3ccc(F)cn3)cn12 (centres unmarked) [Example 173B]: 92
CCCCc1nc(-c2nc(N)c3c(n2)NC(=O)C3(C)c2ccc(F)cc2)cn2ccnc12 (centres unmarked): 137
Nc1nc(-c2cn3ccnc3c(CCCC(F)(F)F)n2)nc2c1C(c1cncc(F)c1)(C1CC1)C(=O)N2 (centres unmarked) [Example 356B]: 108
